- tgt: Vasopressin V2 receptor (Rattus norvegicus)
- protocol: Effective dose was determined for Vasopressin V2 receptor antagonistic activity in vivo in anesthetized rats
- Format: functional, organism-based
Outcome label depends on Effective dose relative to 1 nM/kg: at/above gives true, below gives false.

Look over these answered cases.
smiles.repr	answer.label
CCOc1ccc(C[C@@H](NC(=O)CC(C)(C)C)C(=O)N[C@@H](Cc2ccccc2)C(=O)N[C@H](C(=O)N[C@@H](CC(N)=O)C(=O)N[C@@H](CCCCN)C(=O)N2CCC[C@@H]2C(=O)N[C@@H](CCCN=C(N)N)C(N)=O)C(C)C)cc1	true
CCOc1ccc(C[C@@H](NC(=O)Cc2ccccc2)C(=O)N[C@@H](Cc2ccccc2)C(=O)N[C@H](C(=O)N[C@@H](CC(N)=O)C(=O)N[C@@H](CCCCN)C(=O)N2CCC[C@@H]2C(=O)N[C@@H](CCCN=C(N)N)C(N)=O)C(C)C)cc1	true
CCOc1ccc(C[C@@H](NC(=O)Cc2ccccc2)C(=O)N[C@@H](Cc2ccccc2)C(=O)N[C@H](C(=O)N[C@@H](CC(N)=O)C(=O)N[C@@H](CCCCN)C(=O)N2CCC[C@@H]2C(=O)N[C@@H](CCCN=C(N)N)C(=O)N[C@@H](CCCN=C(N)N)C(N)=O)C(C)C)cc1	true
CCOc1ccc(C[C@@H](NC(=O)Cc2ccccc2)C(=O)N[C@@H](Cc2ccccc2)C(=O)N[C@H](C(=O)N[C@@H](CC(N)=O)C(=O)NCCCC(=O)N2CCC[C@@H]2C(=O)N[C@@H](CCCN=C(N)N)C(=O)N[C@@H](CCCN=C(N)N)C(N)=O)C(C)C)cc1	false
CCOc1ccc(C[C@@H](NC(=O)CC(C)(C)C)C(=O)N[C@@H](Cc2ccccc2)C(=O)N[C@@H](CCC(N)=O)C(=O)N[C@@H](CC(N)=O)C(=O)N[C@@H](CCCCN)C(=O)N2CCC[C@@H]2C(=O)N[C@@H](CCCN=C(N)N)C(N)=O)cc1	true

Form field: Effective dose at least 1 nM/kg? Entry: `CCOc1ccc(C[C@@H](NC(=O)CC23CC4CC(CC(C4)C2)C3)C(=O)N[C@@H](Cc2ccccc2)C(=O)N[C@H](C(=O)N[C@@H](CC(N)=O)C(=O)N[C@@H](CCCN=C(N)N)C(=O)N2CCC[C@@H]2C(=O)N[C@@H](CCCN=C(N)N)C(N)=O)C(C)C)cc1`
true

Form field: Effective dose at least 1 nM/kg? Entry: `COc1ccc(C[C@@H](NC(=O)Cc2ccccc2)C(=O)N[C@@H](Cc2ccccc2)C(=O)N[C@@H](CCC(N)=O)C(=O)N[C@@H](CC(N)=O)C(=O)N[C@@H](CCCCN)C(=O)N2CCC[C@@H]2C(=O)N[C@@H](CCCN=C(N)N)C(N)=O)cc1`
true

Form field: Effective dose at least 1 nM/kg? Entry: `CCOc1ccc(C[C@@H](NC(=O)CC23CC4CC(CC(C4)C2)C3)C(=O)N[C@@H](Cc2ccccc2)C(=O)N[C@H](C(=O)N[C@@H](CC(N)=O)C(=O)N[C@@H](CCCN=C(N)N)C(=O)N(C)[C@@H](C)C(=O)N[C@@H](CCCN=C(N)N)C(N)=O)C(C)C)cc1`
true

Form field: Effective dose at least 1 nM/kg? Entry: `CCOc1ccc(C[C@@H](NC(=O)CC(C)(C)C)C(=O)N[C@@H](Cc2ccccc2)C(=O)N[C@H](C(=O)N[C@@H](CC(N)=O)C(=O)NCCCC(=O)N2CCC[C@@H]2C(=O)N[C@@H](CCCN=C(N)N)C(=O)N[C@@H](CCCN=C(N)N)C(N)=O)C(C)C)cc1`
false

Form field: Effective dose at least 1 nM/kg? Entry: `CCOc1ccc(C[C@@H](NC(=O)Cc2ccccc2)C(=O)N[C@@H](Cc2ccccc2)C(=O)N[C@H](C(=O)N[C@@H](CC(N)=O)C(=O)N[C@@H](CCCN)C(=O)N2CCC[C@@H]2C(=O)N[C@@H](CCCN=C(N)N)C(=O)N[C@@H](CCCN=C(N)N)C(N)=O)C(C)C)cc1`
true

Form field: Effective dose at least 1 nM/kg? Entry: `CC(C)[C@H](NC(=O)[C@H](Cc1ccccc1)NC(=O)[C@@H](Cc1ccc(O)cc1)NC(=O)CC12CC3CC(CC(C3)C1)C2)C(=O)N[C@@H](CC(N)=O)C(=O)N[C@@H](CCCN=C(N)N)C(=O)N1CCC[C@@H]1C(=O)N[C@@H](CCCN=C(N)N)C(=O)N[C@@H](CCCN=C(N)N)C(N)=O`
true

Form field: Effective dose at least 1 nM/kg? Entry: `CCOc1ccc(C[C@@H](NC(=O)CC23CC4CC(CC(C4)C2)C3)C(=O)N[C@@H](Cc2ccccc2)C(=O)N[C@H](C(=O)N[C@@H](CC(N)=O)C(=O)N[C@@H](CCCN=C(N)N)C(=O)N2CCC[C@@H]2C(=O)N[C@@H](CCCN=C(N)N)C(=O)N[C@@H](CCCN=C(N)N)C(N)=O)C(C)C)cc1`
false
